Tmax values for the compounds below.
Assay: Pharmacokinetics of AE-PM components and their phase II metabolites in rat plasma after single oral administration (UHPLC-MS/MS, with and without sulfatase hydrolysis)
Conditions: rat, plasma, po, 50 g/kg, Tmax, Normal group rats; oral AE-PM 50 g/kg; plasma; n = 6
Numeric only. Scale: min

These solved cases illustrate the format of a correct answer.
Compound | Readout Kind | Test Value
COc1cc(O)c2c(c1)C(=O)c1cc(C)cc(O)c1C2=O [Physcion, physcion] | Tmax | 30
OC[C@H]1O[C@@H](Oc2c(O)cc(O)cc2/C=C/c2ccc(O)cc2)[C@H](O)[C@@H](O)[C@@H]1O [TSG] | Tmax | 15
Cc1cc(O)c2c(c1)C(=O)c1cc(O)cc(O)c1C2=O [Emodin, emodin] | Tmax | 10
Cc1cc(O[C@@H]2O[C@H](CO)[C@@H](O)[C@H](O)[C@H]2O)c2c(c1)C(=O)c1cc(O)cc(O)c1C2=O [E-glu, emodin-8-O-β-D-glucoside] | Tmax | 15
COc1cc(O)c2c(c1)C(=O)c1cc(C)cc(O[C@@H]3O[C@H](CO)[C@@H](O)[C@H](O)[C@H]3O)c1C2=O [P-glu, physcion-8-O-β-D-glucoside] | Tmax | 45
Oc1cc(O)c2c(c1)O[C@H](c1ccc(O)c(O)c1)[C@@H](O)C2 [Catechin, catechin] | Tmax | 15

We now examine a further compound.
The reported value for O=C1c2cccc(O)c2C(=O)c2c(O)cc(CO)cc21 [Aloe-emodin, aloe-emodin] in terms of Tmax is 10
